- Tested on: HCI01 (cells of a triple-negative basal-like breast cancer xenograft)
- assayProcedure: cell viability of combination (% of vehicle); higher = less cytotoxic
- runConditions: 1 µM; 72 h; partner dose: 10 nM
measuredMetric: cell viability of combination
Lab note: record the figure alone, no unit after it.

Using the record for CC(C)CC(NC(=O)C(CCc1ccccc1)NC(=O)CN1CCOCC1)C(=O)NC(Cc1ccccc1)C(=O)NC(CC(C)C)C(=O)C1(C)CO1 (stereo not drawn) [Carfilzomib (PR-171)] + CC(C)C[C@H](NC(=O)[C@H](CCc1ccccc1)NC(=O)CN1CCOCC1)C(=O)N[C@@H](Cc1ccccc1)C(=O)N[C@@H](CC(C)C)C(=O)[C@@]1(C)CO1 , state its measured cell viability of combination. 31

Using the record for O=C1C=CC=CC1=C1NC(=C2C=CC=CC2=O)N(c2ccc(C(=O)O)cc2)N1 [Deferasirox] + CC(C)C[C@H](NC(=O)[C@H](CCc1ccccc1)NC(=O)CN1CCOCC1)C(=O)N[C@@H](Cc1ccccc1)C(=O)N[C@@H](CC(C)C)C(=O)[C@@]1(C)CO1 , state its measured cell viability of combination. 67.8

Using the record for CCc1cnn2c(NCc3ccc[n+]([O-])c3)cc(N3CCCCC3CCO)nc12 (stereo not drawn) + CC(C)C[C@H](NC(=O)[C@H](CCc1ccccc1)NC(=O)CN1CCOCC1)C(=O)N[C@@H](Cc1ccccc1)C(=O)N[C@@H](CC(C)C)C(=O)[C@@]1(C)CO1 , state its measured cell viability of combination. 33.6

---

- System: HCI16 (cells of a triple-negative basal-like breast cancer xenograft)
- assayProcedure: cell viability (% of vehicle); higher = less cytotoxic
- runConditions: 10 µM; 72 h
Structures can show the parent of a compound that is named as a salt.
Kindly state cell viability for each of the entries shown.
Lab note: record the figure alone, no unit after it.

Specify the recorded cell viability for Cl.O.O=C1Cc2cc(CCN3CCN(c4nsc5ccccc45)CC3)c(Cl)cc2N1 [Ziprasidone hydrochloride monohydrate] , system: HCI16. 27.2

Specify the recorded cell viability for O=C1C(=O)c2ccccc2C(O)=C1C1CCC(c2ccc(Cl)cc2)CC1 (centres undefined) , system: HCI16. 116

Specify the recorded cell viability for `COC(=O)c1ccc2c(c1)NC(=O)C2=C(Nc1ccc(N(C)C(=O)CN2CCN(C)CC2)cc1)c1ccccc1` , system: HCI16. 85.5

Specify the recorded cell viability for `Cc1nnc(C(=O)NC(C)(C)c2nc(C(=O)NCc3ccc(F)cc3)c(O)c(=O)n2C)o1` , system: HCI16. 118

Specify the recorded cell viability for Nc1cccc2c1C(=O)N(C1CCC(=O)NC1=O)C2=O (centres undefined) [Pomalidomide (CC-4047)] , system: HCI16. 103

Specify the recorded cell viability for `[O-]n1ccccc1=S.[O-]n1ccccc1=S.[Zn+2]` , system: HCI16. 43.1

Specify the recorded cell viability for CC(=O)O.NC(N)=NN=Cc1c(Cl)cccc1Cl [Guanabenz Acetate] , system: HCI16. 158

Specify the recorded cell viability for CCCCC(C)(O)C/C=C/[C@H]1[C@H](O)CC(=O)[C@@H]1CCCCCCC(=O)OC (mixture of isomers) , system: HCI16. 112

Specify the recorded cell viability for COc1ccc(Cl)cc1C(=O)NCCc1ccc(S(=O)(=O)NC(=O)NC2CCCCC2)cc1 [Glibenclamide] , system: HCI16. 110

Specify the recorded cell viability for COc1ccccc1OCC(O)COC(N)=O (centres undefined) , system: HCI16. 111

Specify the recorded cell viability for O=C(O)CCCN1CCC(OC(c2ccc(Cl)cc2)c2ccccn2)CC1.O=S(=O)(O)c1ccccc1 (centres undefined) [Bepotastine Besilate] , system: HCI16. 128

Specify the recorded cell viability for CCc1c2c(nc3ccc(OC(=O)N4CCC(N5CCCCC5)CC4)cc13)-c1cc3c(c(=O)n1C2)COC(=O)[C@]3(O)CC [Irinotecan HCl Trihydrate] , system: HCI16. 105

Specify the recorded cell viability for CCC(Nc1ncnc2nc[nH]c12)c1nc2cccc(F)c2c(=O)n1-c1ccccc1 (centres undefined) , system: HCI16. 68.1

Specify the recorded cell viability for CCOC(=O)NC1CCC2C(C1)CC1C(=O)OC(C)C1C2C=Cc1ccc(-c2cccc(F)c2)cn1 (centres undefined) , system: HCI16. 108

---

- Test system: HCI16
- assayProcedure: cell viability (% of vehicle); higher = less cytotoxic
- runConditions: 10 µM; 72 h
measuredMetric: cell viability
Lab note: record the figure alone, no unit after it.

Using the record for CC(C)(Sc1cc(C(C)(C)C)c(O)c(C(C)(C)C)c1)Sc1cc(C(C)(C)C)c(O)c(C(C)(C)C)c1 [Probucol] , state its measured cell viability. 103

Using the record for CCCN1CCCCC1C(=O)Nc1c(C)cccc1C.Cl.O (centres undefined) [Ropivacaine hydrochloride monohydrate] , state its measured cell viability. 117

Using the record for CC(=O)SCC(Cc1ccccc1)C(=O)NCC(=O)OCc1ccccc1 (centres undefined) [Racecadotril] , state its measured cell viability. 104

Using the record for CS(=O)(=O)c1ccc(C2=C(c3ccccc3)C(=O)OC2)cc1 [Rofecoxib] , state its measured cell viability. 96.7

---

- Test system: HCI01
- assayProcedure: cell viability (% of vehicle); higher = less cytotoxic
- runConditions: 10 µM; 72 h
Kindly state cell viability for each of the entries shown.

Using the record for `COc1cc2nccc(Oc3ccc(NC(=O)Nc4cc(C)on4)c(Cl)c3)c2cc1OC` , state its measured cell viability. 85.4

Using the record for `O=P(O)(O)C(O)(Cn1ccnc1)P(=O)(O)O` , state its measured cell viability. 134

Using the record for COCCOC(=O)C1=C(C)NC(C)=C(C(=O)OCC=Cc2ccccc2)C1c1cccc([N+](=O)[O-])c1 (configuration not stated) , state its measured cell viability. 93.8

Using the record for CCC1OC(=O)C(C)C(OC2CC(C)(OC)C(O)C(C)O2)C(C)C(OC2OC(C)CC(N(C)C)C2O)C(C)(O)CC(C)C2NC(COCCOC)OC(C2C)C1(C)O (configuration not stated) , state its measured cell viability. 143

Using the record for NC(=O)N1c2ccccc2C=Cc2ccccc21 [Carbamazepine] , state its measured cell viability. 107

Using the record for CCCC(C(=O)OCCN(CC)CC)(c1ccccc1)c1ccccc1.Cl [SKF 525A (hydrochloride)] , state its measured cell viability. 103

Using the record for CN(C)CC=CC(=O)Nc1cc2c(Nc3ccc(F)c(Cl)c3)ncnc2cc1OC1CCOC1 (configuration not stated) , state its measured cell viability. 25.6

---

- System: HCI03 (cells of an ER-positive luminal breast cancer xenograft)
- assayProcedure: cell viability (% of vehicle); higher = less cytotoxic
- runConditions: 10 µM; 72 h
measuredMetric: cell viability
Lab note: record the figure alone, no unit after it.

Using the record for CC1(C)SC2C(NC(=O)C(N)c3ccccc3)C(=O)N2C1C(=O)[O-].[Na+] (centres undefined) [Ampicillin] , state its measured cell viability. 101

Using the record for C=C1C(=CC=C2CCCC3(C)C2CCC3C(C)CCCC(C)C)CC(O)CC1O (centres undefined) [Alfacalcidol] , state its measured cell viability. 124

Using the record for COC(=O)C1=C(C)NC(C)=C(C(=O)OC(C)C)C1c1cccc2nonc12 (centres undefined) [Isradipine (Dynacirc)] , state its measured cell viability. 118

Using the record for CCCc1cc(C(N)=S)ccn1 [Protionamide] , state its measured cell viability. 117

Using the record for CC(C(=O)O)c1ccc(C(=O)c2cccs2)cc1 (centres undefined) [Suprofen] , state its measured cell viability. 133

Using the record for CCOc1nc2cccc(C(=O)OCc3oc(=O)oc3C)c2n1Cc1ccc(-c2ccccc2-c2nc(=O)o[nH]2)cc1 [Azilsartan Medoxomil] , state its measured cell viability. 162

Using the record for CC(N)(Cc1ccc(O)c(O)c1)C(=O)O (centres undefined) [Methyldopa] , state its measured cell viability. 96.8

Using the record for CC12CCC3c4ccc(O)cc4CCC3C1CCC2O (centres undefined) [Estradiol] , state its measured cell viability. 111

Using the record for CN1C(C(=O)Nc2ccccn2)=C(O)c2sc(Cl)cc2S1(=O)=O [Lornoxicam] , state its measured cell viability. 111

---

- Tested on: UCD52 (cells of a triple-negative basal-like breast cancer xenograft)
- assayProcedure: cell viability (% of vehicle); higher = less cytotoxic
- runConditions: 10 µM; 72 h
measuredMetric: cell viability
Lab note: record the figure alone, no unit after it.

Using the record for Cl.Cl.O=C(O)COCCN1CCN(C(c2ccccc2)c2ccc(Cl)cc2)CC1 (configuration not stated) [Cetirizine DiHCl] , state its measured cell viability. 78.6

Using the record for CCN(Cc1ccncc1)C(=O)C(CO)c1ccccc1 (configuration not stated) [Tropicamide] , state its measured cell viability. 74.6

Using the record for `CCOc1nc2cccc(C(=O)OCc3oc(=O)oc3C)c2n1Cc1ccc(-c2ccccc2-c2nc(=O)o[nH]2)cc1` , state its measured cell viability. 111

Using the record for CC(C)Nc1cc(-c2c[nH]c(C(=O)NC(CO)c3cccc(Cl)c3)c2)c(Cl)cn1 (configuration not stated) , state its measured cell viability. 56.5

Using the record for COc1cc2c(cc1O)CCC1C2CCC2(C)C(O)CCC12 (configuration not stated) , state its measured cell viability. 95.1

Using the record for CC(=O)O.CC(=O)O.CCC(C)CC(C)CCCCCCCCC(=O)NC1CC(O)C(NCCN)NC(=O)C2C(O)CCN2C(=O)C(C(O)CCN)NC(=O)C(C(O)C(O)c2ccc(O)cc2)NC(=O)C2CC(O)CN2C(=O)C(C(C)O)NC1=O (configuration not stated) [Caspofungin Acetate] , state its measured cell viability. 71.4

Using the record for Clc1ccc(COC(Cn2ccnc2)c2ccc(Cl)cc2Cl)c(Cl)c1 (configuration not stated) , state its measured cell viability. 74.4

Where do the numbers come from? From the supplement of paper PMC6992640.
